subject_of_test: UniProtKB P05121
Sequence (P05121 24-402): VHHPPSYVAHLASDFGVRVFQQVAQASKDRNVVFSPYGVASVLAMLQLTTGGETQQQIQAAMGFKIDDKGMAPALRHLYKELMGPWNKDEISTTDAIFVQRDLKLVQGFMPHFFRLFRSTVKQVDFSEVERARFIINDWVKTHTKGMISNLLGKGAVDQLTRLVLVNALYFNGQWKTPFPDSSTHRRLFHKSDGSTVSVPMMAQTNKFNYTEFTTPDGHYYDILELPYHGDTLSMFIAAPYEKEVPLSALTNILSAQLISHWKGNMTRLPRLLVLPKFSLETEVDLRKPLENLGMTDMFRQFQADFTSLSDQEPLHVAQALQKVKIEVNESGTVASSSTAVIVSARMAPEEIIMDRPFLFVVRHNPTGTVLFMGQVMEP
assay_method_text: biochemical
Format: biochemical
assay_context: 5 μm
Counter-ions that a name gives are not always drawn.
measured_attribute: % Inhibition (%)

Cc1cccc(/C=c2\[nH]c(=O)/c(=C/c3ccc(SCCN(C)C)cc3)[nH]c2=O)c1 [Compound 5439.HCl] :: 6
CN(C)CCSc1ccc(/C=c2\[nH]c(=O)/c(=C/c3ccc(OCc4ccccc4)cc3)[nH]c2=O)cc1 [Compound 5481.HCl] :: 10
CN(C)CCSc1ccc(/C=c2\[nH]c(=O)/c(=C/c3cccc(OCc4ccccc4)c3)[nH]c2=O)s1 [Compound 5487.HCl] :: 7

a: CN(C)CCSc1ccc(/C=c2\[nH]c(=O)/c(=C/c3ccc(N(C)C)cc3)[nH]c2=O)cc1 [Compound 5424.HCl]
b: CN(C)CCSc1ccc(/C=c2\[nH]c(=O)/c(=C/c3ccc(C#N)cc3)[nH]c2=O)cc1 [Compound 5462.HCl]
c: COc1ccc(/C=c2\[nH]c(=O)/c(=C/c3ccc(SCCN(C)C)cc3)[nH]c2=O)cc1 [Compound 5479]
Sort the molecules on % Inhibition; start with the lowest figure. Form entry: labels listed in requested order.
a, b, c
(a: 8%, b: 45%, c: 66%)

A: CSc1ccc(/C=c2\[nH]c(=O)/c(=C/c3ccc(SCCN(C)C)cc3)[nH]c2=O)cc1 [Compound 5426.HCl]
B: CN(C)CCSc1ccc(/C=c2\[nH]c(=O)/c(=C/c3cccc(C#N)c3)[nH]c2=O)cc1 [Compound 5476]
Hey, which is lower on measured % Inhibition, A or B ? Your choice should be expressed through its label.
B

1: Cc1ccc(/C=c2\[nH]c(=O)/c(=C/c3ccc(SCCN(C)C)s3)[nH]c2=O)cc1 [Compound 5460]
2: CN(C)CCSc1ccc(/C=c2\[nH]c(=O)/c(=C/c3ccc(Cl)cc3)[nH]c2=O)cc1 [Compound 5437]
3: CN(C)CCSc1ccc(/C=c2\[nH]c(=O)/c(=C/c3ccccc3)[nH]c2=O)cc1[N+](=O)[O-] [Compound 5400]
4: COC(=O)c1ccc(/C=c2\[nH]c(=O)/c(=C/c3ccc(SCCN(C)C)cc3)[nH]c2=O)cc1 [Compound 5478.HCl]
Ordering: ascending % Inhibition. Output spec: labels arranged per the requested ranking.
4, 2, 1, 3
(4: 3%, 2: 8%, 1: 34%, 3: 61%)

1: CC(=O)Nc1ccc(/C=c2\[nH]c(=O)/c(=C/c3ccc(SCCN(C)C)s3)[nH]c2=O)cc1 [Compound 5300.HCl]
2: CN(C)CCSc1ccc(/C=c2\[nH]c(=O)/c(=C/c3cn(C)c4ccccc34)[nH]c2=O)s1 [Compound 5473]
3: CN(C)CCSc1ccc(/C=c2\[nH]c(=O)/c(=C/c3ccc(N(C)C)cc3)[nH]c2=O)cc1 [Compound 5424]
Highest % Inhibition first, then in falling order down to the smallest. Labels, ranked as asked.
2, 1, 3
